target-of-assay: HLA B*1503 (Homo sapiens, UniProt P01889, A329T/A93T/A95T/C349S/D201E/D98Y/E187L/E204Q/K202T/N87E/Q94N/R155S/R180L/S121R/S35A/V306I/V36M/Y140S/Y91S)
protocol-details: biochemical
Where a SMILES comes first, the peptide text is derived from it.
measurement-label: IC50 (nM)

- CC[C@H](C)[C@H](NC(=O)[C@H](Cc1c[nH]cn1)NC(=O)[C@H](CCC(N)=O)NC(=O)[C@H](CO)NC(=O)[C@H](CCC(=O)O)NC(=O)[C@@H](N)CC(C)C)C(=O)N[C@H](C(=O)N[C@@H](CO)C(=O)N[C@@H](Cc1ccccc1)C(=O)O)[C@@H](C)CC [3102.1322] (H-LESQHIISF-OH): 28
- CC(C)C[C@H](NC(=O)[C@H](CO)NC(=O)[C@@H]1CCCN1C(=O)[C@H](CO)NC(=O)[C@H](Cc1ccccc1)NC(=O)[C@H](CO)NC(=O)[C@@H](NC(=O)[C@H](CO)NC(=O)[C@@H](N)Cc1ccccc1)C(C)C)C(=O)O [3102.1332] (H-FSVSFSPSL-OH): 22
- C[C@H](NC(=O)[C@@H](N)CCCNC(=N)N)C(=O)N[C@@H](CO)C(=O)N[C@@H](CO)C(=O)NCC(=O)N[C@@H](CC(=O)O)C(=O)N[C@@H](CO)C(=O)N[C@@H](CO)C(=O)N[C@@H](Cc1ccccc1)C(=O)O [3102.1236] (H-RASSGDSSF-OH): 21
- CC[C@H](C)[C@H](N)C(=O)N[C@@H](CO)C(=O)N[C@@H](CO)C(=O)N[C@@H](CCCNC(=N)N)C(=O)N[C@@H](CCC(=O)O)C(=O)N[C@@H](CO)C(=O)N[C@H](C(=O)N[C@@H](CO)C(=O)N[C@@H](Cc1ccccc1)C(=O)O)C(C)C [3102.1068] (H-ISSRESVSF-OH): 12

* * *

target-of-assay: HLA B*1501 (Homo sapiens, UniProt P01889, A329T/A93T/A95T/C349S/D201E/D98Y/E187L/E204Q/E69M/E70A/K202T/N87E/Q94N/R155S/R180W/S121R/S35A/S48A/V306I/V36M/Y140S/Y91S)
protocol-details: biochemical
pIC50: −log10 of the molar value. Where a SMILES comes first, the peptide text is derived from it.
Recorded pIC50 by entry
measurement-label: pIC50

* CC[C@H](C)[C@H](NC(=O)[C@H](CO)NC(=O)[C@@H](N)Cc1ccccc1)C(=O)N[C@@H](Cc1ccc(O)cc1)C(=O)N[C@@H](CO)C(=O)N[C@H](C(=O)N[C@@H](CO)C(=O)N[C@@H](CS)C(=O)N[C@@H](Cc1ccccc1)C(=O)O)C(C)C [3102.1330] (H-FSIYSVSCF-OH) | 8.51
* CSCC[C@H](NC(=O)[C@@H](NC(=O)[C@H](CC(C)C)NC(=O)[C@H](CC(C)C)NC(=O)[C@H](Cc1ccc(O)cc1)NC(=O)[C@H](CCC(N)=O)NC(=O)[C@@H](N)CC(N)=O)[C@@H](C)O)C(=O)N[C@@H](Cc1ccccc1)C(=O)N[C@@H](Cc1ccccc1)C(=O)O [3102.0819] (H-NQYLLTMFF-OH) | 8.92
* CC[C@H](C)[C@H](NC(=O)[C@H](CO)NC(=O)[C@@H](N)CCSC)C(=O)N[C@@H](CCSC)C(=O)N1CCC[C@H]1C(=O)N[C@H](C(=O)N[C@@H](CC(C)C)C(=O)N[C@@H](C)C(=O)N[C@@H](Cc1ccc(O)cc1)C(=O)O)C(C)C [3102.0858] (H-MSIMPVLAY-OH) | 8.85

Source of measurements: paper PMC2248166
